Measured EC50 cAMP, Alpha Screen accompanies every entry in the list below.
Target: T1, human VPAC2 receptor (human, UniProt P41587 24-438)
T1 sequence (looked up): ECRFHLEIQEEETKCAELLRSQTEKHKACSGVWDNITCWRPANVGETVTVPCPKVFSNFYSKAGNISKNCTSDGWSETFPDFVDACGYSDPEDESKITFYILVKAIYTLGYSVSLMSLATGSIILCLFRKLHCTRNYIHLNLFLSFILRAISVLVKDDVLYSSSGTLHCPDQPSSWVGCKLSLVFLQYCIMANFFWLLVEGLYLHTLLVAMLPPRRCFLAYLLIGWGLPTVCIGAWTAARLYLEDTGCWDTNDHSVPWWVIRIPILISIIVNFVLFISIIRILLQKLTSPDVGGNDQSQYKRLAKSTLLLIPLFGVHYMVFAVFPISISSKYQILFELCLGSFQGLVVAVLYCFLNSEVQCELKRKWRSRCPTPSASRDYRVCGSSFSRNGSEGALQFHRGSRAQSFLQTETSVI
Assay: cell-based or functional assay
Where no end group is shown, it is not given here. [ ]: non-standard residue; d: D form. The star is where a group is joined. Hexanoyl = CCCCCC(=O)*; Aib = CC(C)(N)C(=O)O
Kindly answer with a numeric value in nM, unit omitted.

Record summary for HSDAVFTDNYTRLRXQVAAXKYLQSIKXGGPSSGAPPPS (N-terminal hexanoyl (C6); Aib at 15, 20; hR at 28) [P354] : reported EC50 cAMP, Alpha Screen = 0.14

Hexanoyl-HSDAVFTDNYTRLRKQVAAKKYLQSLKNKRYGGPSSGAPPPS [P107] has a reported EC50 cAMP, Alpha Screen of 0.12

// field: EC50 cAMP, Alpha Screen; key: Hexanoyl-HSDAVFTDNYTRLR[Aib]QIAA[Aib]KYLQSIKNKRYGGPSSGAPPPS (ends and bridges not checked) [P322] ; value = 0.22

// EC50 cAMP, Alpha Screen value for Hexanoyl-HSDAVFTDNYTRLR[Aib]QVAA[Aib]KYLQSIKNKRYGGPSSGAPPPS (ends and bridges not checked) [P261] : 0.09

Lab note: measured EC50 cAMP, Alpha Screen of Hexanoyl-HSDAVFTDQYTRLLAKLALQKYLQSIKQKRYGGPSSGAPPPS [P192] was 0.18

Source of measurements: patent US20080026996A1
